Test system: HuCCT-1;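 further: growth inhibition of HuCCT-1 cells, read out by a cell viability assay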
Procedure text: cells
Format: functional, cell-based, Homo sapiens, HuCCT1
Assay context: Homo sapiens, HuCCT-1
Description: SANGER: Inhibition of human HuCCT1 cell growth in a cell viability assay.
Counter-ions that a name gives are not always drawn.
Recorded endpoint: IC50 (nM)
Answer in nM, number only, no unit symbol.

Which IC50 is listed for COC1=CC(c2cc3ccccc3[nH]2)=N/C1=C\c1[nH]c(C)cc1C [OBATOCLAX MESYLATE] ?
83.3

====

Give IC50 for every item shown.
Test system: NCI-H2052;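 further: growth inhibition of NCI-H2052 cells, read out with a cell viability assay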
Procedure text: cells
Format: functional, cell-based, Homo sapiens
Assay context: Homo sapiens, NCI-H2052
Description: SANGER: Inhibition of human NCI-H2052 cell growth in a cell viability assay.
Structures can show the parent of a compound that is named as a salt.
Record the value in nM, omitting the unit from your answer.

State the recorded IC50 for this entry: `COc1cccc2c1C(=O)c1c(O)c3c(c(O)c1C2=O)C[C@@](O)(C(=O)CO)C[C@@H]3O[C@H]1C[C@H](N)[C@H](O)[C@H](C)O1`
160

`Nc1ccn([C@@H]2O[C@H](CO)[C@@H](O)C2(F)F)c(=O)n1` , same question.
145

And for `Cc1cc([N+](=O)[O-])ccc1NS(=O)(=O)c1cc(Cl)ccc1Cl` ?
18200

Same read-out for COC1=CC(c2cc3ccccc3[nH]2)=N/C1=C\c1[nH]c(C)cc1C [OBATOCLAX MESYLATE] ?
567
